Molecular target: COX-2 (Ovis aries, UniProt P79208)
Sequence (P79208 17-603): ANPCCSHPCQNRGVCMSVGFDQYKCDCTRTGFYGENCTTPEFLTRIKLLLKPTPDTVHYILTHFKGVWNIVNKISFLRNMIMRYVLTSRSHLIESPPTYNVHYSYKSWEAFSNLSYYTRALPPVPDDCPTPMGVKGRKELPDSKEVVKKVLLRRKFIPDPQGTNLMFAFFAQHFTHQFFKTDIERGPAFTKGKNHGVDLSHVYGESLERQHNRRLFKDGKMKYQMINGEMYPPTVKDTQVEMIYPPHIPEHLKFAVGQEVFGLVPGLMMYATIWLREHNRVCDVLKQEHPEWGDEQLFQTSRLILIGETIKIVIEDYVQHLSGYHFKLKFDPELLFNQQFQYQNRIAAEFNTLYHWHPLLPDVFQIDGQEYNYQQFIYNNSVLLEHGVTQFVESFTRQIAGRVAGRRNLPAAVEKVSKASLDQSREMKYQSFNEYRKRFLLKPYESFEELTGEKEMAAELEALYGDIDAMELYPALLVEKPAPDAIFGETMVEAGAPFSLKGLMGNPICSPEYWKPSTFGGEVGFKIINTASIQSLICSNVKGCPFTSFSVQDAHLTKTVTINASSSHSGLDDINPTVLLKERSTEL
Assay: recombinant COX-2 enzyme inhibition

compound_string | IC50 (µM)
CC(=O)Oc1ccc(NCCc2ccc(C(F)(F)F)cc2)cc1C(=O)O | 651

----------
Target: UniProt:P05979
Sequence (P05979 25-600): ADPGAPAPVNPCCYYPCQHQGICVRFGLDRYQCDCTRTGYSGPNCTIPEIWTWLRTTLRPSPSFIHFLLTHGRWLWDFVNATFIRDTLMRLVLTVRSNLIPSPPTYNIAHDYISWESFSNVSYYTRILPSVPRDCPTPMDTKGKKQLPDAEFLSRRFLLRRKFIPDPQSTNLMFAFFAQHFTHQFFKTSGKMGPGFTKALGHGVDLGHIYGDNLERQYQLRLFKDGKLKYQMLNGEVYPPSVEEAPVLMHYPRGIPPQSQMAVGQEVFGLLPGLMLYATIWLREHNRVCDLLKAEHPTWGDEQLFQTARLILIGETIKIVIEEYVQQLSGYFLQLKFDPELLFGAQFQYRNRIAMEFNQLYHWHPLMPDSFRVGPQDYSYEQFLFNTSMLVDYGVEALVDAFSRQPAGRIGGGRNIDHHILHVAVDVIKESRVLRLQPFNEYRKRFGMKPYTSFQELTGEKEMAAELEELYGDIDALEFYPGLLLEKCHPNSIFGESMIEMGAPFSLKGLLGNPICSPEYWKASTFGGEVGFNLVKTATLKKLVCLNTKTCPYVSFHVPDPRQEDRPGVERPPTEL
Experiment: recombinant COX-1 enzyme inhibition
Type: biochemical
pIC50: −log10 of the molar value.
measured_parameter: pIC50

compound_string | measured_parameter | observed_value
CC(=O)Oc1ccc(NCCc2ccc(C(F)(F)F)cc2)cc1C(=O)O | pIC50 | 4.79

Every entry's value here was drawn from paper PMC9748189.
